Quick reference for growth among some molecules
tested on: SF-268 CNS; assay: NCI-60 one-dose screen, 48 h (100 = growth as untreated, 0 = no growth, -100 = all killed); settings: 10 µM unless noted
The panel holds about 83,000 compounds, 20% with a hit somewhere; the sample as a whole holds those more often.
measure: growth (%)

> print(dat)
                                   molecule  target.system  measure  value
1  COc1ccccc1-n1c(-c2cc(O)ccc2C)cn2c3c(=O)[nH]c(=O)n(C)c3nc12     SF-268 CNS   growth   60.3
2  O=c1[nH]c(-c2ccc(Cl)cc2)cn1-c1ccc(-n2cc(-c3ccc(Cl)cc3)[nH]c2=O)cc1     SF-268 CNS   growth    109
3      CCOC(=O)c1c2c(n3c1NCC3)-c1ccccc1C2=O     SF-268 CNS   growth   99.6
4         CN(C)c1ccc(/C=C/C(=O)c2ccccc2)cc1     SF-268 CNS   growth   89.7
5  COc1ccc(/C=C/C(=O)c2ccc(NC(=O)CSc3nnc(-c4cc(-c5ccccc5)nc5ccccc45)n3-c3ccccc3)cc2)cc1     SF-268 CNS   growth   98.3
6  CC[C@H](CC[C@@H](C)[C@H]1CC[C@H]2[C@@H]3CC[C@@H]4CC(=O)/C(=C\c5ccncc5)C[C@]4(C)[C@H]3CC[C@]12C)C(C)C     SF-268 CNS   growth    107
7  O=C1OCC2=C1C(c1cccc(C(F)(F)F)c1)c1cc3c(cc1N2CCO)OCO3 (centres undefined)     SF-268 CNS   growth   47.6
8  Cc1cc(C)cc(Nc2ccc([N+](=O)[O-])c(NCCN3CCOCC3)n2)c1     SF-268 CNS   growth   25.1
9            CCCCC(=O)Nc1ncc(Cc2ccccc2Cl)s1     SF-268 CNS   growth   69.6
